test-system: human TPH1 (Homo sapiens, UniProt P17752)
Sequence (P17752 1-444): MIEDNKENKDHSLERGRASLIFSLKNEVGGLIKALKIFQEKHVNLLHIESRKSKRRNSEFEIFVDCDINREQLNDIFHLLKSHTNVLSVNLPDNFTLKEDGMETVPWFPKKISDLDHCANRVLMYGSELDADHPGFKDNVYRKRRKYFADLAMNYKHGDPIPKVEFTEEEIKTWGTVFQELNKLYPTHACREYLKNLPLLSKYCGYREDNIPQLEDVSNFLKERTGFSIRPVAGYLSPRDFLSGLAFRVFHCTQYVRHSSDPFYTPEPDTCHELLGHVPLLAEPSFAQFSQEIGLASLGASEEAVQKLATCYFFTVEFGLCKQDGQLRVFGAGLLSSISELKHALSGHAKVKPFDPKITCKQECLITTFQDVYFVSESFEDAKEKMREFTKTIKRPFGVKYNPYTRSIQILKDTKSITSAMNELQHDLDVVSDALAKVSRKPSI
assay-text: biochemical
value-kind: IC50 (nM)

CCc1cc2nc3c(n2cc1C)C(c1ccc(OC)c(OC)c1)N(C(=O)COc1ccc2ccccc2c1)CC3 (stereo not shown) :: 9

(P) COc1ccc(C2c3c(nc4cc(C(F)(F)F)ccn34)CCN2C(=O)COc2ccc(C(F)(F)F)cc2)cc1OC (stereo not shown)
(Q) Cc1ccc(C2c3c(nc4cc(C(F)(F)F)ccn34)CCN2C(=O)COc2ccc(CN3CCOCC3)cc2Cl)cn1 (stereo not shown)
(R) COc1ccc(C2c3c(nc4ccccn34)CCN2C(=O)COc2ccc3ccccc3c2C)cc1OC (stereo not shown)
Task item: Your job: order these 3 records by IC50, ascending. Rank them, then answer with their labels in that order.
Reply: R, Q, P

====

test-system: UniProt:P17752
assay-text: biochemical
pIC50: −log10 of the molar value.
value-kind: pIC50

Previously resolved entries follow.
O=C(COc1ccc2ccccc2c1)N1CCc2nc3cc(C(F)(F)F)ccn3c2C1c1ccc(Cl)cc1 (centres unmarked) :: 7.23
Cc1ccc(C2c3c(nc4cc(C(F)(F)F)ccn34)CCN2C(=O)COc2ccc3ccccc3c2)cc1C (centres unmarked) :: 7.48

(a) COc1ccc(C2c3c(nc4ccc(Cl)cn34)CCN2C(=O)COc2ccc3ccccc3c2)cc1OC (centres unmarked)
(b) COc1ccc(C2c3c(nc4cc(C(F)(F)F)ccn34)CCN2C(=O)COc2ccc(CN3CCOCC3)cc2Cl)cc1OC (centres unmarked)
(c) Cc1ccc(C2c3c(nc4cc(C(F)(F)F)ccn34)CCN2C(=O)COc2cc(-c3ccccc3)nn2C)nc1 (centres unmarked)
Task item: Please give the order of these molecules when sorted by pIC50, largest value leading. Answer by listing the labels in the requested order.
Reply: b, a, c
(b: 7.77, a: 6.84, c: 6.33)

====

test-system: human TPH1 (Homo sapiens)
assay-text: biochemical
pIC50: −log10 of the molar value.
value-kind: pIC50

(I) COc1ccc([C@@H]2c3c(nc4cc(Cl)ccn34)CCN2C(=O)COc2ccc(N3CCOCC3)cc2Cl)cn1
(II) COc1ccc(C2c3c(nc4cc(C)ccn34)CCN2C(=O)COc2ccc(Cl)cc2Cl)cc1OC (stereo not shown)
(III) O=C(COc1ccc(C(F)(F)F)cc1Cl)N1CCc2nc3cccnn3c2C1c1ncc(C2CC2)cc1F (stereo not shown)
(IV) O=C(COc1ccc(N2CCOCC2)cc1Cl)N1CCc2nc3ccccn3c2C1c1ccc(C2CC2)cc1F (stereo not shown)
(V) COc1ccc(C2c3c(nc4cc(C(F)(F)F)ccn34)CCN2C(=O)COc2ccc3ccccc3c2)nc1OC (stereo not shown)
Task item: Sort the list above on pIC50 in ascending fashion. Answer by listing the labels in the order asked for.
Reply: III, I, V, II, IV
(III: 6.62, I: 7.05, V: 7.28, II: 7.49, IV: 8.05)
